assay: qHTS profiling of the MIPE4 collection as inhibitors of Plasmodium falciparum (HB3) proliferation (AID 743347);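 also: plate controls were DMSO vehicle wells for no effect and artemisinin wells for full effect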; details: P. falciparum HB3 in erythrocytes, SYBR Green DNA, 72 h; at 28.5 µM (top of the series) unless noted
valueKind: growth, % of control (%)

- CC1=C2C[C@@H]3[C@@H](CC=C4C[C@@H](O)CC[C@@]43C)[C@@H]2CC[C@]12O[C@H]1C[C@H](C)CN[C@H]1[C@H]2C: 71.2
- C=C(C)[C@H]1Cc2c(ccc3c2O[C@@H]2COc4cc(OC)c(OC)cc4[C@@H]2C3=O)O1: 90.3
- CN1CCN(C(=O)O[C@H]2c3nccnc3C(=O)N2c2ccc(Cl)cn2)CC1: 97.2

###

target: Cytochrome P450 2D6 (Homo sapiens) (UniProt P10635); test: Cytochrome P450 family 2 subfamily D member 6 (CYP2D6) small molecule antagonists: luciferase biochemical (cell-free) qHTS assay (AID 1645840); settings: P450-Glo CYP2D6 enzyme, luciferin luminescence, 1 h; series mostly up to 57.4 µM; also: nearly all actives have a fitted effect of over 55% in size
Sequence (P10635 whole entry, looked up): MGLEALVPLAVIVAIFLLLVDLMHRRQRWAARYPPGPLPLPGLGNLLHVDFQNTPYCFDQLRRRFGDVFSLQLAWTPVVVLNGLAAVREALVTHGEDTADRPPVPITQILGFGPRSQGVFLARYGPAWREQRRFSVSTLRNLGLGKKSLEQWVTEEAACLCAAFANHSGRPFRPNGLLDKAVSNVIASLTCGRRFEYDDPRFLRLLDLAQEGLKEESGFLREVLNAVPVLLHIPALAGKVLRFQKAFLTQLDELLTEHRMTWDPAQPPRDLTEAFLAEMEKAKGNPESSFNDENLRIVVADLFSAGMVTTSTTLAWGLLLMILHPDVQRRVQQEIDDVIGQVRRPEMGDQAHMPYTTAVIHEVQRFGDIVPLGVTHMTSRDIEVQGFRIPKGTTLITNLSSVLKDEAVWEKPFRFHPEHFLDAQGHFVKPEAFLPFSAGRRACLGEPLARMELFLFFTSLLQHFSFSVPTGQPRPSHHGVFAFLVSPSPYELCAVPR
Inconclusive results are not listed. The source made the active and inactive calls. Calls follow the shape of the dose curve; as a rule, active = well fitted inhibition curve with a large enough effect in the repeat runs; inconclusive = weak or mixed curves; inactive = flat fitted curve, though single readings scatter.
Possible outcomes: 1 (yes) (active), 0 (no) (inactive)

- CCN(CC)CCN1C(=O)CN=C(c2ccccc2F)c2cc(Cl)ccc21: 1 (yes)
- CC(=O)[C@H]1CC[C@H]2[C@@H]3CC[C@H]4C[C@](C)(O)CC[C@]4(C)[C@H]3CC[C@]12C: 1 (yes)
- CCCN1CCC[C@@H]2Cc3[nH]ncc3C[C@H]21: 0 (no)
- COc1ccc(Cc2nccc3cc(OC)c(OC)cc23)cc1OC: 1 (yes)
- O=C(O)c1ccc2[nH]cc(CCCCN3CC=C(c4ccccc4)CC3)c2c1: 1 (yes)
- C=C1CC[C@@]2(O)[C@H]3Cc4ccc(O)c5c4[C@@]2(CCN3CC2CC2)[C@H]1O5: 1 (yes)
- CCC(C(N)=O)N1CCCC1=O (centres undefined): 0 (no)
- C#CCN(C)[C@H](C)Cc1ccccc1: 1 (yes)
- N[C@@H](Cc1ccc(N(CCCl)CCCl)cc1)C(=O)O: 1 (yes)
- Clc1cccc(N2CCNCC2)c1: 1 (yes)
- Oc1ccccc1-c1ccccc1: 0 (no)
- C[C@@H]1O[C@@H](O[C@H]2C[C@@H](O)[C@]3(CO)[C@H]4[C@H](O)C[C@]5(C)[C@@H](C6=CC(=O)OC6)CC[C@]5(O)[C@@H]4CC[C@]3(O)C2)[C@H](O)[C@H](O)[C@H]1O: 0 (no)
- C[C@]12CC[C@H]3[C@@H](CCC4=CC(=O)CC[C@@H]43)[C@@H]1CC[C@@H]2OC(=O)CCc1ccccc1: 0 (no)
- NCCc1cc(O)c(O)cc1O: 0 (no)
- NP(N)(=O)NC(=O)c1ccc(F)cc1: 0 (no)
- CC(C)(N)Cc1ccc(Cl)cc1: 1 (yes)
- CCOP(=S)(OCC)Oc1cc(C)nc(C(C)C)n1: 0 (no)
- Cn1c(CCCC(=O)O)nc2cc(N(CCCl)CCCl)ccc21: 0 (no)
- CO[C@]12CC[C@@]3(C[C@@H]1[C@](C)(O)C(C)(C)C)[C@@H]1Cc4ccc(O)c5c4[C@@]3(CCN1CC1CC1)[C@H]2O5: 1 (yes)

###

system: CP286; assay: qHTS profiling for inhibitors of Plasmodium falciparum proliferation (AID 504749); also: nearly all actives have a fitted effect of over 60% in size; conditions: P. falciparum in erythrocytes, SYBR Green DNA, 72 h; series mostly up to 28.7 µM
Inconclusive results are not listed. Activity calls are given as the source filed them. Calls come from the whole dose curve; as a rule, active = well fitted inhibition curve with a large enough effect; inconclusive = small, poorly fitted or top-dose-only effect; inactive = flat fitted curve, though single readings scatter.
Possible outcomes: 1 for active, 0 for inactive

* NCCc1cc(O)c(O)cc1O | 0
* O=c1[nH]c2ccccc2n1C1CCN(CCCC(c2ccc(F)cc2)c2ccc(F)cc2)CC1 | 1
* CC(=O)[C@H]1CC[C@H]2[C@@H]3CC[C@H]4C[C@](C)(O)CC[C@]4(C)[C@H]3CC[C@]12C | 0
* c1ccc2c(c1)OCC(C1=NCCN1)O2 (centres undefined) | 0
* O=c1[nH]c2ccccc2n1CCCN1CCC(n2c(=O)[nH]c3cc(Cl)ccc32)CC1 | 1
* Oc1cccc2cccnc12 | 0
* N#CC(C#N)=Cc1ccc(O)c(O)c1 | 0
* COc1ccc(C(CN(C)C)C2(O)CCCCC2)cc1 (centres undefined) | 0
* COc1ccc(C(=O)c2c(C)n(CCN3CCOCC3)c3ccccc23)cc1 | 0
* Oc1cc(Cl)ccc1Oc1ccc(Cl)cc1Cl | 1
* CC[N+]1(C)CCCC(OC(=O)C(O)(c2ccccc2)c2ccccc2)C1 (centres undefined) | 0
* C[C@]12C/C(=C/O)C(=O)C[C@@H]1CC[C@@H]1[C@@H]2CC[C@@]2(C)[C@H]1CC[C@]2(C)O | 0
* CCOP(=S)(OCC)Oc1cc(C)nc(C(C)C)n1 | 0
* O=C(O)c1ccc2[nH]cc(CCCCN3CC=C(c4ccccc4)CC3)c2c1 | 0

###

tested on: PC26; experiment: qHTS profiling for inhibitors of Plasmodium falciparum proliferation (AID 504749); also: nearly all actives have a fitted effect of over 60% in size; conditions: P. falciparum in erythrocytes, SYBR Green DNA, 72 h; series mostly up to 28.7 µM
Inconclusive results are not listed. Active and inactive are the calls of the source. Calls follow the shape of the dose curve; as a rule, active = well fitted inhibition curve with a large enough effect; inconclusive = small, poorly fitted or top-dose-only effect; inactive = flat fitted curve, though single readings scatter.
Possible outcomes: label 1 (active), label 0 (inactive)

- CCC(C(N)=O)N1CCCC1=O (stereo not given): label 0
- CC(=O)Nc1cc([As](=O)(O)O)ccc1O: label 0
- CN(C)CCc1ccc(O)cc1: label 0
- CCCN1CCC[C@@H]2Cc3[nH]ncc3C[C@H]21: label 0
- Fc1ccc(C(OCCN2CCN(CCCc3ccccc3)CC2)c2ccc(F)cc2)cc1: label 1
- Clc1cccc(N2CCNCC2)c1: label 0
- CCN(CC)CCN1C(=O)CN=C(c2ccccc2F)c2cc(Cl)ccc21: label 0
- FC(F)(F)c1cccc(C2=CCN(CCc3ccc4ccccc4c3)CC2)c1: label 0
- CN1C(=S)CN=C(c2ccccc2)c2cc(Cl)ccc21: label 0
- CCC1(C2=NCCN2)Cc2ccccc2O1 (stereo not given): label 0
- O=C(NC(O)C(Cl)(Cl)Cl)NC(O)C(Cl)(Cl)Cl (stereo not given): label 0
- CC[N+]1(C)CCCC(OC(=O)C(O)(c2ccccc2)c2ccccc2)C1 (stereo not given): label 0
- N#CC(C#N)=Cc1ccc(O)c(O)c1: label 0
- C=C(C)[C@H]1Cc2c(ccc3c2O[C@@H]2COc4cc(OC)c(OC)cc4[C@@H]2C3=O)O1: label 0
- NN=C(N)N: label 0
- O=C(O)c1ccc2[nH]cc(CCCCN3CC=C(c4ccccc4)CC3)c2c1: label 0
- c1ccc2c(c1)OCC(C1=NCCN1)O2 (stereo not given): label 0
- NCC(O)c1ccc(O)cc1 (stereo not given): label 0
- NCCc1cc(O)c(O)cc1O: label 0
- CN1C[C@H](CNC(=O)OCc2ccccc2)C[C@@H]2c3cccc4c3c(cn4C)C[C@H]21: label 1

###

Recorded Z-AUC values for a group of compounds are listed next.
assay: qHTS drug screen for cell cycle checkpoint inhibitors in PARPi-resistant BRCA-mutant ovarian cancer cell lines. (AID 1963452); details: PEO1/OlaR viability, CellTiter-Glo luminescence, 96 h; measured here: PEO1 parental Z-AUC; stronger effect = lower value
valueKind: Z-AUC

• COc1ccc(C(=O)c2c(C)n(CCN3CCOCC3)c3ccccc23)cc1 = -0.45
• Cc1sc2c(c1C)C(c1ccc(Cl)cc1)=N[C@@H](CC(=O)OC(C)(C)C)c1nnc(C)n1-2 = -0.421
• C#CCN(C)[C@H](C)Cc1ccccc1 = 0.381
• Cc1cccc(C)c1NC(=O)CN1CCCC1=O = 0.59
• COC[C@@H](NC(C)=O)C(=O)NCc1ccccc1 = 0.116
• NN=C(N)N = 0.529
• CN(C)[C@@H]1C(=O)C(C(N)=O)=C(O)[C@@]2(O)C(=O)C3=C(O)c4c(O)cccc4[C@@](C)(O)[C@H]3C[C@@H]12 = 0.408
• C=C1C[C@@H]2[C@H](CC[C@]3(C)C(=O)CC[C@@H]23)[C@@]2(C)C=CC(=O)C=C12 = 0.968

###

assay: qHTS Screen of the MIPE 4.0 Collection Against Ewings Sarcoma (TC32) (AID 1259256); conditions: TC32 Ewing sarcoma viability, CellTiter-Glo, 48 h; series mostly up to 45.8 µM; also: nearly all actives have a fitted effect of over 45% in size
Records with an inconclusive call do not appear. Calls of active or inactive are those of the source. Calls come from the whole dose curve; as a rule, active = well fitted inhibition curve with a large enough effect; inconclusive = small, poorly fitted or top-dose-only effect; inactive = no such curve, though single readings can be large or run the other way.
Possible outcomes: active, inactive

• Cn1c(CCCC(=O)O)nc2cc(N(CCCl)CCCl)ccc21 = inactive
• CC(O)(CS(=O)(=O)c1ccc(F)cc1)C(=O)Nc1ccc(C#N)c(C(F)(F)F)c1 (stereo not given) = active
• Cc1sc2c(c1C)C(c1ccc(Cl)cc1)=N[C@@H](CC(=O)OC(C)(C)C)c1nnc(C)n1-2 = active
• C=C(C)[C@H]1Cc2c(ccc3c2O[C@@H]2COc4cc(OC)c(OC)cc4[C@@H]2C3=O)O1 = active
• C[C@@H]1O[C@@H](O[C@H]2C[C@@H](O)[C@]3(CO)[C@H]4[C@H](O)C[C@]5(C)[C@@H](C6=CC(=O)OC6)CC[C@]5(O)[C@@H]4CC[C@]3(O)C2)[C@H](O)[C@H](O)[C@H]1O = active
